Read-out: Apolipoprotein A-V (APOA5) gene, APOA5 (gene 116519)
Assay: LTEA_HepaRG_APOA5: Life Technologies and Expression Analysis (LTEA) Assay for Apolipoprotein A-V (APOA5) gene using HepaRG (AID 2283474)
Settings: mRNA level, 48 h; actives raise or lower the signal
Active and inactive are the calls of the source. Rule for the calls: active = hit-call score of the fitted dose curve at least 0.9, where 1 is the maximum; inactive = score below 0.9.
Hi! Could you answer with just one of these? y (active), n (inactive)

Examples from the recorded data:
COMPOUND: ClC(Cl)c1ccccc1
CLASS_ASSIGNMENT: n

COMPOUND: CCC(C)(C)c1ccc(O)cc1
CLASS_ASSIGNMENT: n

COMPOUND: c1nc[nH]n1
CLASS_ASSIGNMENT: y

What was the test verdict on c1cc2c3c(cccc3c1)CC2 ? n

* * *

Read-out: Pselectin, SELP (gene 6403)
Test: BSK_4H_Pselectin: BioMAP Diversity Plus: 4H Assay for Pselectin Biomarker Activity (AID 2283026)
Conditions: primary human endothelial cells (HUVEC); actives raise or lower the signal
Calls of active or inactive are those of the source. How the source made its calls: active means hit-call score of the fitted dose curve at least 0.9, where 1 is the maximum; inactive means score below 0.9.

COMPOUND: CC(Cl)(Cl)C(=O)O
outcome: inactive
//
COMPOUND: CN(C)C(=O)Cl
outcome: inactive
//
COMPOUND: O=P(OCC(Br)CBr)(OCC(Br)CBr)OCC(Br)CBr (stereo not drawn)
outcome: inactive

* * *

Target: human Retinoic Acid Receptor gamma (RARg), RARG (gene 5916) (UniProt P13631)
Sequence (P13631 whole entry, looked up): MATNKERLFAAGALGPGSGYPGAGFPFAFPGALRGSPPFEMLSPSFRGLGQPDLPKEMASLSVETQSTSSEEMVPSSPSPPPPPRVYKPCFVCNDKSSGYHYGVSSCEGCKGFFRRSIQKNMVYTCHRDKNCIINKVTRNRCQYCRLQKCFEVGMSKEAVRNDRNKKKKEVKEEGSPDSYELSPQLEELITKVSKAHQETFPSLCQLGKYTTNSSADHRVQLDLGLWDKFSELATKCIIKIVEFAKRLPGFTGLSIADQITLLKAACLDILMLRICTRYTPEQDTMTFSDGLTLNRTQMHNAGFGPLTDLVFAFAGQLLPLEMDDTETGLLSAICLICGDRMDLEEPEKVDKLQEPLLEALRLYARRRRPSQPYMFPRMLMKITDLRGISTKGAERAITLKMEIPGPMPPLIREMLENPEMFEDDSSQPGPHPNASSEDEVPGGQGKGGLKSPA
Experiment: ATG_RARg_TRANS: Attagene TRANS-FACTORIAL HepG2 Assay for human Retinoic Acid Receptor gamma (RARg) (AID 2283009)
Records with an inconclusive call do not appear. Activity calls are given as the source filed them. How the source made its calls: active means hit-call score of the fitted dose curve at least 0.9, where 1 is the maximum; inconclusive means response in the unintended direction; inactive means score below 0.9.
Your response should consist of one outcome taken from true (1) (active), false (0) (inactive)

The examples below pair each entry with its known result.
COMPOUND: Cc1ccc(O)cc1C
CLASS_ASSIGNMENT: false (0)
//
COMPOUND: c1ccc2c(c1)sc1ccccc12
CLASS_ASSIGNMENT: false (0)
//
COMPOUND: O=C(O)C=CC(F)(C(F)(F)F)C(F)(F)F
CLASS_ASSIGNMENT: false (0)

Now consider the entry below.
Can you look up the reported call for CC(C)(C)N(NC(=O)c1ccc(Cl)cc1)C(=O)c1ccccc1 for me? false (0)

* * *

Assay: IUF_NPC2a_radial_glia_migration_72hr: Leibniz Research Institute for Environmental Medicine (IUF) 72-hour Neural Progenitor Cell Migration Assay for Radial Glia Migration (NPC2a) (AID 2284299)
Activity calls are given as the source filed them. The calls were made as follows: active = hit-call score of the fitted dose curve at least 0.9, where 1 is the maximum; inactive = score below 0.9.
Hi! Could you answer with just one of these? active, inactive

Answered cases to consult:
MOLECULE: CCOP(=S)(OCC)SCSCC
CLASS_ASSIGNMENT: inactive
//
MOLECULE: O=P(Oc1ccccc1)(Oc1ccccc1)Oc1ccccc1
CLASS_ASSIGNMENT: inactive
//
MOLECULE: CO/N=C(/C(=O)OC)c1ccccc1COc1ccccc1C
CLASS_ASSIGNMENT: active

// next entry
# lookup: test call for CCCCC(CC)COP(=O)(Oc1ccccc1)Oc1ccccc1 (centres undefined) inactive

* * *

Biological target: Cellular tumor antigen p53 (Homo sapiens) (UniProt P04637)
Sequence (P04637 whole entry, looked up): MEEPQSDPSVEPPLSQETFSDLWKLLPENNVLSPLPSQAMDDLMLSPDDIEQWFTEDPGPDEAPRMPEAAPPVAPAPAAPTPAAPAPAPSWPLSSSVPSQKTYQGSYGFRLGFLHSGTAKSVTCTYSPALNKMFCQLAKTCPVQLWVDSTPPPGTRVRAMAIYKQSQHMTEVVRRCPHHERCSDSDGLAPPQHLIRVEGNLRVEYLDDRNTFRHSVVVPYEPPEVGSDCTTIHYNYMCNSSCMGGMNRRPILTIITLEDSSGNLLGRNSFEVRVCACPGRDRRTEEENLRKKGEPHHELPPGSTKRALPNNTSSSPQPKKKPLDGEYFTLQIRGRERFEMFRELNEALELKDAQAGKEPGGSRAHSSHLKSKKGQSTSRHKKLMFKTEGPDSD
Assay: ATG_p53_CIS: Attagene CIS-FACTORIAL HepG2 Assay for human p53 Transcription Factor (AID 2282994)
Conditions: HepG2 p53 cis-element reporter, Attagene mRNA; actives raise or lower the signal
Procedure: ATG_CIS is a cell-based, multiplexed-readout assay that uses HepG2, a human liver cell line, with measurements taken at 24 hours after chemical dosing in a 24-well plate.ATG_p53_CIS is one of 52 assay component(s) measured or calculated from the ATG_CIS assay. […] This assay endpoint, ATG_p53_CIS, was analyzed with bidirectional fitting relative to DMSO as the negative control and baseline of activity. […]
Active and inactive are the calls of the source. Rule for the calls: active = hit-call score of the fitted dose curve at least 0.9, where 1 is the maximum; inactive = score below 0.9.
Can you answer with just one of these options? active, inactive

MOLECULE: CCOc1ccc(C(C)(C)COCc2cccc(Oc3ccccc3)c2)cc1
CLASS_ASSIGNMENT: inactive

Would you mind telling me which call this test gave ClC(Cl)(Cl)c1ccccc1 ? inactive

And what about the molecule ClC(Cl)=C(c1ccc(Cl)cc1)c1ccccc1Cl ? inactive

Next record, please: CCC1(c2ccccc2)C(=O)N=C(O)NC1=O (stereo not given) inactive

Consider next the molecule NNC(N)=S in the same way. inactive

Here is the next molecule: O=[N+]([O-])c1cc(Cl)ccc1Cl inactive

Proceed to CCCCN(CC)C(=O)SCCC inactive

Check [N-]=[N+]=[N-] too. inactive

Can you handle CC(Cl)CN(C)C (stereo not given) next? inactive

Moving on to the next molecule: N#Cc1c(-c2ccc(Cl)cc2)[nH]c(C(F)(F)F)c1Br inactive

Queued: O=S(=O)(c1ccc(O)cc1)c1ccc(O)cc1 inactive

* * *

Read-out: Transforming Growth Factor (TGFA), TGFA (gene 7039)
Assay: LTEA_HepaRG_TGFA: Life Technologies and Expression Analysis (LTEA) Assay for Transforming Growth Factor (TGFA) using HepaRG (AID 2283532)
Conditions: mRNA level, 48 h; actives raise or lower the signal
Calls of active or inactive are those of the source. The calls were made as follows: active = hit-call score of the fitted dose curve at least 0.9, where 1 is the maximum; inactive = score below 0.9.
Result category, one only: active, inactive

Examples with answers:
COMPOUND: ClC(Cl)c1ccccc1
CLASS_ASSIGNMENT: inactive
//
COMPOUND: Nc1ccc(Cl)cc1
CLASS_ASSIGNMENT: inactive
//
COMPOUND: [N-]=[N+]=[N-]
CLASS_ASSIGNMENT: active
//
COMPOUND: CC(C)(C)c1ccc(O)cc1
CLASS_ASSIGNMENT: inactive
//
COMPOUND: ClC1=C(Cl)C2(Cl)C3C(Cl)C(Cl)CC3C1(Cl)C2(Cl)Cl (stereo not drawn)
CLASS_ASSIGNMENT: inactive

Attention now turns to another entry.
Assay outcome for Cc1ccc(O)cc1C : what was it? inactive

* * *

Read-out: Monokine induced gamma interferon (MIG), CXCL9 (gene 4283)
Assay: BSK_CASM3C_MIG: BioMAP Diversity Plus: CASM3C Assay for Monokine induced gamma interferon (MIG) Biomarker Activity (AID 2283048);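 note: MIG protein level measured by ELISA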
Conditions: primary human coronary artery smooth muscle cells; actives raise or lower the signal
Activity calls are given as the source filed them. The calls were made as follows: active = hit-call score of the fitted dose curve at least 0.9, where 1 is the maximum; inactive = score below 0.9.
Your response should consist of one outcome taken from y (active), n (inactive)

COMPOUND: CCCCN(CCCC)SN(C)C(=O)Oc1cccc2c1OC(C)(C)C2
CLASS_ASSIGNMENT: n

COMPOUND: CCCCc1ccccc1
CLASS_ASSIGNMENT: n

COMPOUND: CCCCN(CCCC)N=O
CLASS_ASSIGNMENT: n

Could you please tell me the result logged for CCC(C)(C)c1ccc(O)cc1 in this assay? n

Also, CCOP(=S)(NC(C)C)Oc1ccccc1C(=O)OC(C)C (stereo unspecified) please. n

Let us now turn to CCOP(=S)(Oc1ccc([N+](=O)[O-])cc1)c1ccccc1 (stereo unspecified) n

Queued: CCOc1ccc(C(C)(C)COCc2cccc(Oc3ccccc3)c2)cc1 n

Thanks! And c1ccc2c(c1)Nc1ccccc1S2 ? n

Same for ClC1=C(Cl)C2(Cl)C3C(Cl)C(Cl)CC3C1(Cl)C2(Cl)Cl (stereo unspecified) n

* * *

Test: IUF_NPC1b_proliferation_BrdU_72hr: Leibniz Research Institute for Environmental Medicine (IUF) 72-hour Neural Progenitor Cell Bromodeoxyuridine (BrdU) Proliferation Assay (NPC1b) (AID 2284207)
Activity calls are given as the source filed them. The calls were made as follows: active = hit-call score of the fitted dose curve at least 0.9, where 1 is the maximum; inactive = score below 0.9.
Select the correct class. Options are active, inactive and nothing else.

COMPOUND: CCOP(=S)(OCC)SCSCC
CLASS_ASSIGNMENT: active

COMPOUND: O=P(Oc1ccccc1)(Oc1ccccc1)Oc1ccccc1
CLASS_ASSIGNMENT: inactive

Name the outcome recorded for CCCCC(CC)COP(=O)(Oc1ccccc1)Oc1ccccc1 (stereo not given) in the assay. active

Same again, this time with CCCCOCCOP(=O)(OCCOCCCC)OCCOCCCC inactive

What about this compound? O=C(O)C(F)(OC(F)(F)C(F)(F)C(F)(F)F)C(F)(F)F (stereo not given) inactive

* * *

Read-out: Pyruvate Dehydrogenase Kinase 4 (PDK4), PDK4 (gene 5166)
Assay: LTEA_HepaRG_PDK4: Life Technologies and Expression Analysis (LTEA) Assay for Pyruvate Dehydrogenase Kinase 4 (PDK4) using HepaRG (AID 2283525)
Conditions: mRNA level, 48 h; actives raise or lower the signal
The source made the active and inactive calls. How the source made its calls: active means hit-call score of the fitted dose curve at least 0.9, where 1 is the maximum; inactive means score below 0.9.
VALUE_KIND: outcome

Consider the following illustrative entries.
MOLECULE: CCCCN(CCCC)N=O
VALUE_KIND: outcome
REPORTED_MEASUREMENT: inactive
//
MOLECULE: O=C(O)C(Cl)Cl
VALUE_KIND: outcome
REPORTED_MEASUREMENT: inactive
//
MOLECULE: c1nc[nH]n1
VALUE_KIND: outcome
REPORTED_MEASUREMENT: inactive
//
MOLECULE: Nc1cc2c3c(c1)C(c1ccccc1)=N[C@@H](NC(=O)c1cccnc1)C(=O)N3CC2
VALUE_KIND: outcome
REPORTED_MEASUREMENT: inactive
//
MOLECULE: O=[N+]([O-])c1ccccc1
VALUE_KIND: outcome
REPORTED_MEASUREMENT: inactive

Given the molecule OCC1CO1 (stereo not drawn) , what is its reported outcome? inactive

Follow-up entry: O=P1(N(CCCl)CCCl)NCCCO1 (stereo not drawn) inactive

Let us now turn to ClC(Cl)(Cl)c1ccccc1 inactive
